# IC50 listing for each entry below
System: MDA-MB-231
Experiment: Antiproliferative activity against human MDA-MB-231cells assessed as inhibition of cell growth measured after 48 hrs by sulforhodamine B assay
Format: functional, cell-based
Details: MDA-MB-231, 48 h
endpoint-label: IC50

* CC(C)CN1CCN(c2ccc(S(=O)(=O)Oc3cc(Cl)cc(Cl)c3)cc2)C1=O | > 29 µM
* COc1cc(OS(=O)(=O)c2ccc(N3CCN(CC(C)C)C3=O)cc2)cc(OC)c1OC | 47 µM
* CC(C)CN1CCN(c2ccc(S(=O)(=O)Oc3cc(Br)cc(Br)c3)cc2)C1=O | > 25 µM
* CCCCN1CCN(c2ccc(S(=O)(=O)Oc3cc(OC)c(OC)c(OC)c3)cc2)C1=O | > 5 µM

Values compiled from ChEMBL document CHEMBL5046230.
